Where do the numbers come from? From PubChem BioAssay AID1347419.

- TESTED_SYSTEM: Protein-tyrosine kinase 2-beta (Homo sapiens) (UniProt Q14289)
- Sequence (Q14289 whole entry, looked up): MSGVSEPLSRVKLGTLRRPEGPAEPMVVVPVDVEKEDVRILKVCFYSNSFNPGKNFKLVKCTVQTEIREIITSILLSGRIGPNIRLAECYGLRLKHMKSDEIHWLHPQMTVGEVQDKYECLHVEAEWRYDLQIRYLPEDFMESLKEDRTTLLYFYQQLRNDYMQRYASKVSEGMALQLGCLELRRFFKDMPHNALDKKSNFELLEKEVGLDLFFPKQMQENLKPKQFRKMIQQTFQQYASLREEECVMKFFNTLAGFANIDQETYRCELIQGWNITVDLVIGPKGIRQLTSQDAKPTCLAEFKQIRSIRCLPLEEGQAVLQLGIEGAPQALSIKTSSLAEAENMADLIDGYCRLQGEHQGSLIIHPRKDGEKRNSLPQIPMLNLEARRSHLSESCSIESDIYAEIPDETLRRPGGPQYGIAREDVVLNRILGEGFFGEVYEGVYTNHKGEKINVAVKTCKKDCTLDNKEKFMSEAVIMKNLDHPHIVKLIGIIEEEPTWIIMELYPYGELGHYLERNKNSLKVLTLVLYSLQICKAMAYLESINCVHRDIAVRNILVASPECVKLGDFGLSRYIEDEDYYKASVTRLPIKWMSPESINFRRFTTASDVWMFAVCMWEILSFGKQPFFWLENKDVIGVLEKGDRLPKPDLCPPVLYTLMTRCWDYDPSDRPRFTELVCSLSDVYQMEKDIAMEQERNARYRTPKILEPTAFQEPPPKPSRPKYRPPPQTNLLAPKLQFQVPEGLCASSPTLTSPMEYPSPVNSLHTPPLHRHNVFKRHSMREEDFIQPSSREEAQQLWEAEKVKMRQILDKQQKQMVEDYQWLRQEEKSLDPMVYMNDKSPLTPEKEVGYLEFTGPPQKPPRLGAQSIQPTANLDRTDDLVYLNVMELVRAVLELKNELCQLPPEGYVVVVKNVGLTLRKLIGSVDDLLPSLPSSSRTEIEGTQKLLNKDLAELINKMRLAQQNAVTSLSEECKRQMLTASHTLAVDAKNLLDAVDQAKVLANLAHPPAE
- EXPERIMENTAL_PROTOCOL: antagonists of Pyk2 self-association, primary screen, Q293 cells, FERM NanoBiT luminescence, HTS (AID 1347419);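 further: the deposit names both 25 µM and 10 µM; negative z-score means lost luminescence so less FERM oligomerization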
- Design: dose or concentration left out as unconfirmed
- ASSAY_SETUP: active compounds read low
Among all 99,000 compounds or so, about 820 (0.83%) were called active. For the sample, actives were picked, then their nearest neighbours and some compounds at random.
Give z-score for every item shown.
Respond numerically, and do not add a unit to the figure.

Which z-score reading was recorded for the molecule O=C(COC(=O)c1ccccc1)Nc1ccc(Cl)cc1C(=O)c1ccccc1 ?
0.02

Which z-score is reported for this molecule? CC(=O)c1c(O)n(C2CCCCCC2)c(=O)[nH]c1=O
0.12

Query (molecule): CCC(=NCCc1ccccc1)c1c(O)n(C2CCCCC2)c(=O)[nH]c1=O ; field requested: z-score
-3.36

Returns the measured z-score for the input molecule. Input: CCC(=NCc1ccco1)c1c(O)n(Cc2ccccc2)c(=O)[nH]c1=O
-0.23
